# Target or system: human P2X7 receptor (Homo sapiens (Human), UniProt Q99572, R270H)
# Sequence (Q99572 whole entry R270H): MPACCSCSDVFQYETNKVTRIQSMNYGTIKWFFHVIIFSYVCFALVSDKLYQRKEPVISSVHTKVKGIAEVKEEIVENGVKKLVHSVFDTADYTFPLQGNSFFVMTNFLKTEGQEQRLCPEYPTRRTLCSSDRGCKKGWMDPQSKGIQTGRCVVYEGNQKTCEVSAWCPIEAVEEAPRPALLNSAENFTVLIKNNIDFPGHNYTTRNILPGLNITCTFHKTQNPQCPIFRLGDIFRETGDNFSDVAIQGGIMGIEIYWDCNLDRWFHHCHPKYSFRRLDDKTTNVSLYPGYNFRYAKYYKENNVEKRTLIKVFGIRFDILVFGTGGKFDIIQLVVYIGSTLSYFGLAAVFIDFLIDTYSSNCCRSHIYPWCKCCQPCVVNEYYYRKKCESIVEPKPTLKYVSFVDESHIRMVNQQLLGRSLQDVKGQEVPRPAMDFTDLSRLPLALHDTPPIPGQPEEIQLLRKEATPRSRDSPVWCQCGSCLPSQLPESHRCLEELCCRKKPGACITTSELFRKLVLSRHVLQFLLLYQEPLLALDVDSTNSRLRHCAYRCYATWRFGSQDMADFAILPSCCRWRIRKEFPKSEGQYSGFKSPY
# Protocol notes: Evaluation of a human P2X7 receptor inhibitory activity (Yo-Pro uptake, BzATP stimulation, FLIPR TETRA)
# Format: cell-based
# Condition label: 1321N1 cells stably expressing human P2X7 receptor, Yo-Pro fluorescence
Reported metric: IC50 (nM)

1. Cc1ccc(OC(F)F)cc1NC1=NC(=O)N(C)C2=NCC(c3cc(F)c(F)c(F)c3)N12 (stereo not shown) : 18
2. C=Cc1c2n(c(Nc3ccc(OC)nc3C)nc1=O)C(c1cc(F)cc(F)c1)CC2 (stereo not shown) : 17
3. COc1ccc(NC2=NC(=O)N(C)C3=NCC(c4cc(F)c(F)c(F)c4)N23)c(C)c1F (stereo not shown) : 24
4. CCc1nc(OC)ccc1Nc1nc(=O)cc2n1C(c1cc(F)cc(F)c1)CC2 (stereo not shown) : 11
5. Cc1cc(C)c(Nc2nc(=O)cc3n2C(c2ccccc2)CN3C)cc1C (stereo not shown) : 11
6. COCCOc1ccc(C)c(NC2=NC(=O)N(C)C3=NCC(c4cc(F)c(F)c(F)c4)N23)c1 (stereo not shown) : 27
7. O=c1cc2n(c(Nc3cccc4ncccc34)n1)C(c1ccccc1)CO2 (stereo not shown) : 16
8. CCN1C(=O)N=C(Nc2cc(C)c(C)cc2C)N2C1=NCC2c1ccccc1 (stereo not shown) : 25
9. COc1cc(NC2=NC(=O)N(C)C3=NCC(c4ccc(F)cc4)N23)c(C)cc1F (stereo not shown) : 18
10. COc1c2n(c(Nc3cccc(Cl)c3C)nc1=O)C(c1ccccc1)CCO2 (stereo not shown) : 22
11. COc1ccc(/N=c2\[nH]c(=O)c(F)c3n2C(c2ccc(F)cc2)CC3)c(C)n1 (stereo not shown) : 10
12. CCc1ccc(CO)cc1NC1=NC(=O)N(C)C2=NCC(c3cc(F)c(F)c(F)c3)N12 (stereo not shown) : 20
13. Cc1nc2cc(C)c(Nc3nc(=O)cc4n3C(c3ccccc3)CN4)cc2s1 (stereo not shown) : 12
14. Cc1cc2c(cc1Nc1nc(=O)c(F)c3n1C(c1cc(F)cc(F)c1)CC3)COC2 (stereo not shown) : 11
15. COc1c2n(c(Nc3cc4sc(C)nc4cc3C)nc1=O)C(c1ccccc1)CC2 (stereo not shown) : 16
16. Cc1c(Cl)cccc1Nc1nc(=O)cc2n1C(c1ccccc1)COC2 (single isomer, unassigned) : 1.8
